test system: soybean (Glycine max L., var. Pella 86, SOY); assay: Post-emerge test, crop damage soybean; assay type: in vivo; details: post-emerge, 250 g ai/ha, 14 days after application, rating scale 0-100 (0 no damage, 100 complete death)
# Post-emerge crop damage SOY (phytotoxicity rating) annotations
# answer = number (no unit)

Here is how some compounds turned out for Post-emerge crop damage SOY (phytotoxicity rating).
compound	result
CC1C(=O)Nc2c(-c3ncc(C(F)(F)F)cc3Cl)c(F)cc3c2N1C(=O)CO3 (stereo not shown)	100
CCC1C(=O)Nc2c(-c3nn(C)c(OC(F)F)c3Cl)c(F)cc3c2N1C(=O)C(C)(C)O3 (stereo not shown)	25
CC1Oc2cc(F)c(-c3nn(C)c(OC(F)F)c3Cl)c3c2N(CC(=O)N3)C1=O (stereo not shown)	100
CCC1C(=O)Nc2c(-c3ncc(C(F)(F)F)cc3Cl)c(F)cc3c2N1C(=O)CO3 (stereo not shown)	100
CC(C)C1C(=O)Nc2c(N3C(=O)C4=C(CCCC4)C3=O)c(F)cc3c2N1C(=O)CO3 (stereo not shown)	10

Q. Consider the compound `O=C1CN2C(=O)COc3cc(F)c(-c4ncc(C(F)(F)F)cc4Cl)c(c32)N1` . State its measured Post-emerge crop damage SOY (phytotoxicity rating).
A. 100

Q. Return Post-emerge crop damage SOY (phytotoxicity rating) (reported value) for this compound: Cc1nn(-c2c(F)cc3c4c2NC(=O)C(C)N4C(=O)CO3)c(=O)n1C(F)F (stereo not shown)
A. 0

Q. Please indicate Post-emerge crop damage SOY (phytotoxicity rating) recorded for `C[C@@H]1Oc2cc(F)c(-c3nn(C)c(C(F)(F)F)c3Cl)c3c2N(CC(=O)N3)C1=O`
A. 80

Q. # return recorded Post-emerge crop damage SOY (phytotoxicity rating) for entry CC1C(=O)Nc2c3c(cc(F)c2-n2c(=O)cc(C(F)(F)F)n(C)c2=O)OCC(=O)N31 (stereo not shown)
A. 50

Q. Return the recorded Post-emerge crop damage SOY (phytotoxicity rating) value; entry: `Cn1nc(-c2c(F)cc3c4c2NC(=O)C(C)(C)N4C(=O)CO3)c(Cl)c1OC(F)F`
A. 100

Q. Quick one: give measured Post-emerge crop damage SOY (phytotoxicity rating) for `Cn1c(C(F)(F)F)cc(=O)n(-c2c(F)cc3c4c2NC(=O)CN4C(=O)CO3)c1=O`
A. 95

Q. Using known records, supply Post-emerge crop damage SOY (phytotoxicity rating) for CC1Oc2cc(F)c(-c3nn(C)c(C(F)(F)F)c3Cl)c3c2N(C1=O)C(C)C(=O)N3 (mixture of isomers) [1-51]
A. 60

Q. For the compound `Cn1nc(-c2c(F)cc3c4c2NC(=O)CN4C(=O)C(C)(C)O3)c(Cl)c1OC(F)F` , give its reported Post-emerge crop damage SOY (phytotoxicity rating).
A. 45

###

system: common ragweed (Ambrosia artemisiifolia L., AML); test: Pre-emerge test, common ragweed; type: in vivo; conditions: 250 g ai/ha, 14 days after application, rating scale 0-100 (0 no damage, 100 complete death)
measure.name: Pre-emerge Herbicidal Activity AML (phytotoxicity rating)
Answer with the value's number alone.

Q. Find the measured Pre-emerge Herbicidal Activity AML (phytotoxicity rating) of Cn1nc(-c2c(F)cc3c4c2NC(=O)C(c2ccccc2)N4C(=O)CO3)c(Cl)c1C(F)(F)F (stereo not drawn) and report it.
A. 98

Q. Kindly indicate its recorded Pre-emerge Herbicidal Activity AML (phytotoxicity rating). Item: O=C1Nc2c(-c3ncc(C(F)(F)F)cc3Cl)c(F)cc3c2N(C(=O)CO3)C1c1ccccc1 (stereo not drawn)
A. 65

Q. Please report the measured Pre-emerge Herbicidal Activity AML (phytotoxicity rating) for CCC1C(=O)Nc2c3c(cc(F)c2-n2c(=O)cc(C(F)(F)F)n(C)c2=O)OCC(=O)N31 (stereo not drawn)
A. 100

Q. Answer with the recorded Pre-emerge Herbicidal Activity AML (phytotoxicity rating) of `O=C1CN2C(=O)COc3cc(F)c(-c4ncc(C(F)(F)F)cc4Cl)c(c32)N1` only.
A. 100

Q. Query Pre-emerge Herbicidal Activity AML (phytotoxicity rating) for `C[C@H]1Oc2cc(F)c(-c3nn(C)c(C(F)(F)F)c3Cl)c3c2N(CC(=O)N3)C1=O`
A. 99

Q. # return recorded Pre-emerge Herbicidal Activity AML (phytotoxicity rating) for entry `Cn1nc(-c2c(F)cc3c4c2NC(=O)C(C)(C)N4C(=O)CO3)c(Cl)c1C(F)(F)F`
A. 100

Q. Specify reported Pre-emerge Herbicidal Activity AML (phytotoxicity rating) for the molecule shown: `O=C1CN2C(=O)COc3cc(F)c(-n4nnn(CCCF)c4=O)c(c32)N1`
A. 55

Q. Give reported Pre-emerge Herbicidal Activity AML (phytotoxicity rating) value for `O=C1CN2C(=O)COc3cc(F)c(N4C(=O)C5=C(CCCC5)C4=O)c(c32)N1`
A. 98

Q. Respond only with Pre-emerge Herbicidal Activity AML (phytotoxicity rating) recorded for `C[C@@H]1Oc2cc(F)c(-c3nn(C)c(C(F)(F)F)c3Cl)c3c2N(CC(=O)N3)C1=O`
A. 100

Q. Identify Pre-emerge Herbicidal Activity AML (phytotoxicity rating) associated with the molecule CCC1C(=O)Nc2c(-c3nn(C)c(OC(F)F)c3Cl)c(F)cc3c2N1C(=O)CO3 (stereo not drawn)
A. 98

Q. Respond only with Pre-emerge Herbicidal Activity AML (phytotoxicity rating) recorded for CC1C(=O)Nc2c3c(cc(F)c2-n2c(=O)cc(C(F)(F)F)n(C)c2=O)OCC(=O)N31 (stereo not drawn)
A. 100

Q. Indicate its recorded Pre-emerge Herbicidal Activity AML (phytotoxicity rating); the molecule in question is CCC1C(=O)Nc2c3c(cc(F)c2-n2nc(C)n(C(F)F)c2=O)OCC(=O)N31 (stereo not drawn)
A. 85

Q. Give me measured Pre-emerge Herbicidal Activity AML (phytotoxicity rating), please, for this molecule: CC1C(=O)Nc2c(-c3nn(C)c(C(F)(F)F)c3Cl)c(F)cc3c2N1C(=O)C(C)(C)O3 (stereo not drawn)
A. 95

Q. Annotate the molecule `Cn1nc(-c2c(F)cc3c4c2NC(=O)CN4C(=O)CO3)c(Cl)c1C(F)(F)F` with its measured Pre-emerge Herbicidal Activity AML (phytotoxicity rating).
A. 100

Q. Please give measured Pre-emerge Herbicidal Activity AML (phytotoxicity rating) of the following entry: CC1C(=O)Nc2c(-c3ncc(C(F)(F)F)cc3Cl)c(F)cc3c2N1C(=O)CO3 (stereo not drawn)
A. 100

Q. Specify measured Pre-emerge Herbicidal Activity AML (phytotoxicity rating) for CC1C(=O)Nc2c(-c3nn(C)c(OC(F)F)c3Cl)c(F)cc3c2N1C(=O)CO3 (stereo not drawn) .
A. 100

Q. Name the recorded Pre-emerge Herbicidal Activity AML (phytotoxicity rating) of the item CC1Oc2cc(F)c(-c3nn(C)c(C(F)(F)F)c3Cl)c3c2N(C1=O)C(C(C)C)C(=O)N3 (mixture of isomers) in your answer.
A. 95

Q. Name the recorded Pre-emerge Herbicidal Activity AML (phytotoxicity rating) of the molecule listed here: CC1Oc2cc(F)c(-c3nn(C)c(OC(F)F)c3Cl)c3c2N(CC(=O)N3)C1=O (stereo not drawn)
A. 100

Q. Quote Pre-emerge Herbicidal Activity AML (phytotoxicity rating) reported for `Cn1nc(-c2c(F)cc3c4c2NC(=O)CN4C(=O)C(C)(C)O3)c(Cl)c1C(F)(F)F` please.
A. 98

Q. For the molecule CC1C(=O)N(C)c2c(-c3nn(C)c(OC(F)F)c3Cl)c(F)cc3c2N1C(=O)CO3 (stereo not drawn) , give its measured Pre-emerge Herbicidal Activity AML (phytotoxicity rating) value.
A. 35

Q. Return value of Pre-emerge Herbicidal Activity AML (phytotoxicity rating) for input CC1Oc2cc(F)c(-c3nn(C)c(OC(F)F)c3Cl)c3c2N(C1=O)C(C)C(=O)N3 (mixture of isomers) , no commentary.
A. 100

Q. Identify measured Pre-emerge Herbicidal Activity AML (phytotoxicity rating) associated with CC1C(=O)Nc2c(-c3nn(C)c(OC(F)F)c3Cl)c(F)cc3c2N1C(=O)C(C)(C)O3 (stereo not drawn)
A. 80

Q. Fill in Pre-emerge Herbicidal Activity AML (phytotoxicity rating) for record `Cn1nc(-c2c(F)cc3c4c2NC(=O)CN4C(=O)C(C)(C)O3)c(Cl)c1OC(F)F`
A. 100

Q. Return the recorded Pre-emerge Herbicidal Activity AML (phytotoxicity rating) value; entry: Cn1nc(-c2c(F)cc3c4c2NC(=O)C(c2ccccc2)N4C(=O)CO3)c(Cl)c1OC(F)F (stereo not drawn)
A. 100

Q. Fill in Pre-emerge Herbicidal Activity AML (phytotoxicity rating) for record CCC1C(=O)Nc2c(-c3ncc(C(F)(F)F)cc3Cl)c(F)cc3c2N1C(=O)CO3 (stereo not drawn)
A. 100
